Observed pIC50, system CK2 ααββ (Homo sapiens (Human), UniProt P68400).
pIC50: −log10 of the molar value.

Completed entries (count: 2):
Molecule	Tgt	pIC50
O=C1NC(=O)/C(=C/c2cnn3c(NC4CC4)cc(Nc4cc(Cl)ccc4F)nc23)N1	CK2 ααββ (Homo sapiens (Human), UniProt P68400)	> 8.00
CCN1CCCC1CNc1cc(NC2CC2)n2ncc(/C=C3\SC(=O)NC3=O)c2n1 (stereo not drawn)	CK2 ααββ (Homo sapiens (Human), UniProt P68400)	> 7.00

Give pIC50 for each of the items listed below.
1. O=C1NC(=O)/C(=C/c2cnn3c(NC4CC4)cc(Nc4ccccn4)nc23)N1
2. Cc1c(N2CCN(c3ccccn3)CC2)nc2c(C=C3SC(=O)NC3=O)cnn2c1NC1CC1

Output:
1: > 8.00; 2: > 6.00

----------
System: BxPC3 human pancreatic adenocarcinoma cells
Test Name: Cell proliferation assay with Alamar Blue (AB), BxPC3
Assay type: cell-based
Measurement Conditions: Homo sapiens, BXPC-3, read-out: AB: BxPC3
Metric: pIC50
Answers are plain numbers, as −log10 of the molar value.

Molecule	pIC50
O=C1NC(=O)/C(=C/c2cnn3c(NC4CC4)cc(-c4cccc(OCC5CC5)c4)nc23)N1	5.18
O=C1NC(=O)/C(=C/c2cnn3c(NCCO)cc(Nc4cccc(Cl)c4)nc23)N1	5.72
O=C1NC(=O)/C(=C/c2cnn3c(Nc4cccc(C(=O)N5CCNCC5)c4)cc(Nc4cccc(Cl)c4)nc23)N1	4.85
O=C1NC(=O)/C(=C/c2cnn3c(NCC4CC4)cc(Nc4cccc(Cl)c4)nc23)N1	4.91
O=C1NC(=O)/C(=C/c2cnn3c(NC4CC4)cc(-c4cccc(OCC(=O)N5CCCC5)c4)nc23)N1	4.84

Give pIC50 for each of the items listed below.
1. O=C1NC(=O)/C(=C/c2cnn3c(NC4CC4)cc(-c4cccnc4)nc23)N1
2. CCN1CCCC1CNc1cc(NC2CC2)n2ncc(/C=C3\SC(=O)NC3=O)c2n1 (centres unmarked)
3. CCCCS(=O)(=O)Nc1cccc(-c2cc(NC3CC3)n3ncc(/C=C4\NC(=O)NC4=O)c3n2)c1
4. CC(C)(C)OC(=O)c1cccc(Nc2cc(Nc3cccc(Cl)c3)nc3c(/C=C4\NC(=O)NC4=O)cnn23)c1

Output:
5.09
5.02
5.65
4.99

Give pIC50 for each of the items listed below.
1. O=C1NC(=O)/C(=C/c2cnn3c(NC4CC4)cc(Nc4cccc(C(F)(F)F)c4)nc23)N1
2. O=C1NC(=O)/C(=C/c2cnn3c(NC4CC4)cc(-c4cccc(CN5CCOCC5)c4)nc23)N1
3. CC(C)N1CCN(C(=O)c2cc(-c3cc(NC4CC4)n4ncc(/C=C5\NC(=O)NC5=O)c4n3)ccc2F)CC1
4. O=C1NC(=O)/C(=C/c2cnn3c(NC4CC4)cc(-c4ccnc(F)c4)nc23)N1

Output:
1: 5.41; 2: 4.84; 3: 5.92; 4: 5.91

Give pIC50 for each of the items listed below.
1. O=C1NC(=O)/C(=C/c2cnn3c(NC4CCNCC4)cc(Nc4cccc(Cl)c4)nc23)N1
2. O=C1NC(=O)/C(=C/c2cnn3c(NC4CC4)cc(NC4CCCC4)nc23)N1
3. CS(=O)(=O)Nc1cccc(-c2cc(NC3CC3)n3ncc(/C=C4\NC(=O)NC4=O)c3n2)c1
4. O=C1NC(=O)/C(=C/c2cnn3c(NC4CC4)cc(-c4cccc(OC(F)(F)F)c4)nc23)N1
5. O=C1NC(=O)/C(=C/c2cnn3c(NC4CC4)cc(NCC4CC4)nc23)N1
6. CN(C)CCNC(=O)c1cc(-c2cc(NC3CC3)n3ncc(/C=C4\NC(=O)NC4=O)c3n2)ccc1F

Output:
1. 4.96
2. 4.98
3. 5.48
4. 5.81
5. 5.16
6. 5.73

Task: Which value of pIC50 has been reported for `COC(=O)c1cccc(-c2cc(NC3CC3)n3ncc(/C=C4\NC(=O)NC4=O)c3n2)c1` in the records?
Output: 5.69

Cited source for all entries: patent US9303033B2
